Target: T1, PTH1 receptor (human, UniProt Q03431)
T1 chain: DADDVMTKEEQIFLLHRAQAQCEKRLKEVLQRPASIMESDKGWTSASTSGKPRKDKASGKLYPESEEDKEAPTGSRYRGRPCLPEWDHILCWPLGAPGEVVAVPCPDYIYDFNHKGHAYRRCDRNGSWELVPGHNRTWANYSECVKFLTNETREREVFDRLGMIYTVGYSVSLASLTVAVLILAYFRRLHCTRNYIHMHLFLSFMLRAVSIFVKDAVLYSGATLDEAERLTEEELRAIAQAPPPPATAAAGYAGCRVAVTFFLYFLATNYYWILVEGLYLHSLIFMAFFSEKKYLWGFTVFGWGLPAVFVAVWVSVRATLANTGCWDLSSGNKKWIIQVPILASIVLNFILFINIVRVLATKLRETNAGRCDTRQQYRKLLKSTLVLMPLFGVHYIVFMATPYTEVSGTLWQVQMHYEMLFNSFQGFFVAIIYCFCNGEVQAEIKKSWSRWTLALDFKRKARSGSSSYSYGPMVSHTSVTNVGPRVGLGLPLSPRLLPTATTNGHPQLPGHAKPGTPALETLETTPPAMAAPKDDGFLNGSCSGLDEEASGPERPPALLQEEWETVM
Assay: other, radioligand saturation, HEK293 membranes, 21C
No end group written: not given here.
readoutType: Kd (nM)
Write the number in nM without appending the unit.

I have this binder here, DAAFRERARLLAALERRHWLNSYMHKLLVLDAP (also: 125I label, site not given here) [[125I]TIP(7-39)] , and I need its recorded Kd.
1.3
